Documented inhibition at 0.033 µM across a set of molecules
system: Rab10 pThr73; experiment: Rab10 Thr73 dephosphorylation (immunoblot) in LRRK2^G2019S MEFs; format: cell-based; details: Mus musculus, 33 nM/4 h treatment; read-out: pRab10 inhibited in LRRK2^G2019S MEFs

CNc1nc(Nc2ccc(C(=O)N3CCN(CCOCCOCCOCCOCCOc4cc(-c5scnc5C)ccc4CNC(=O)[C@@H]4C[C@@H](O)CN4C(=O)[C@@H](NC(=O)C4(F)CC4)C(C)(C)C)CC3)cc2OC)ncc1Cl [SD79] ... 0 to 60%
CNc1nc(Nc2ccc(OCCOCCOCCOCCSC(C)(C)[C@@H](NC(=O)C3(F)CC3)C(=O)N3C[C@H](O)C[C@H]3C(=O)NCc3ccc(-c4scnc4C)cc3)cc2OC)ncc1Cl [XL01145] ... 0 to 70%
CNc1nc(Nc2ccc(C(=O)N3CCN(C[C@H]4CC[C@@H](CSC(C)(C)[C@H](NC(=O)C5(F)CC5)C(=O)N5C[C@H](O)CC5C(=O)N[C@@H](C)c5ccc(-c6scnc6C)cc5)CC4)CC3)cc2OC)ncc1Cl (stereo partly shown) [XL02060] ... 0 to 90%
CNc1nc(Nc2ccc(C(=O)N3CCN(CCOCCOCCSC(C)(C)[C@H](NC(=O)C4(F)CC4)C(=O)N4C[C@H](O)C[C@H]4C(=O)NCc4ccc(-c5scnc5C)c(F)c4)CC3)cc2OC)ncc1Cl [XL01123] ... 0 to 70%
CNc1nc(Nc2ccc(OC3CCN(C[C@H]4CC[C@H](CSC(C)(C)C(NC(=O)C5(F)CC5)C(=O)N5C[C@H](O)C[C@H]5C(=O)NCc5ccc(-c6scnc6C)cc5)CC4)CC3)cc2OC)ncc1Cl (stereo partly shown) [XL02017] ... 0 to 90%

Request: Give the measured inhibition at 0.033 µM of CNc1nc(Nc2ccc(C(=O)N3CCN(CCOCCOCCSC(C)(C)[C@@H](NC(=O)C4(F)CC4)C(=O)N4C[C@H](O)C[C@H]4C(=O)NCc4ccc(-c5scnc5C)cc4)CC3)cc2OC)ncc1C(F)(F)F [XL01078B] .
Result: 0 to 70%

Request: Another molecule to look at: CNc1nc(Nc2ccc(C(=O)N3CCN(CCCSC(C)(C)[C@H](NC(=O)C4(F)CC4)C(=O)N4C[C@H](O)C[C@H]4C(=O)NCc4ccc(-c5scnc5C)cc4)CC3)cc2OC)ncc1C(F)(F)F [XL01072]
Result: 0 to 70%

Request: Follow-up item: CNc1nc(Nc2ccc(C(=O)N3CCN(CCOCCOCCN4CCN(c5ccc6c(c5)C(=O)N(C5CCC(=O)NC5=O)C6=O)CC4)CC3)cc2OC)ncc1Cl (stereo not shown) [SD10]
Result: 0 to 60%

Request: Input CNc1nc(Nc2ccc(C(=O)N3CCN(CCOCCOCCSC(C)(C)[C@H](NC(=O)C4(F)CC4)C(=O)N4C[C@H](O)C[C@H]4C(=O)NCc4ccc(-c5scnc5C)cc4)CC3)cc2OC)ncc1Cl [SD75]
Result: 0 to 60%

Request: And CNc1nc(Nc2ccc(C(=O)N3CCN(CC#CCSC(C)(C)[C@H](NC(=O)C4(F)CC4)C(=O)N4C[C@H](O)C[C@H]4C(=O)NCc4ccc(-c5scnc5C)cc4)CC3)cc2OC)ncc1Cl [XL01076] ?
Result: 0 to 70%

// data source = patent US20260001875A1
